B1: Hairpin Ribozyme (parent)
chain: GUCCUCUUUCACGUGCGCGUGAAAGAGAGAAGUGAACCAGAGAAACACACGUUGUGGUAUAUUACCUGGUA

Variants of: B1
Test: self-cleavage, relative activity (ratio to wild type); higher = more cleavage; co-transcriptional
# self-cleavage values compiled below
measurementName: self-cleavage

> print(dat)
          var  quantitativeresult
 1  A26G A45U               0.148
 2  G27U G29A               0.225
 3  A45G U67A              0.0776
 4  G27U U53C               0.398
 5  U20G C66G               0.219
 6  G42C C66U                0.13
 7  C10U G54U               0.452
 8  C18A A43G               0.085
 9   C4G U67C              0.0875
10  A41U C50G               0.756
11  G21A A61G               0.116

Reference for the values: the RNAGym collection of RNA variant scans (doi:10.7554/elife.80360)
